Assay System: WIZ (Homo sapiens, UniProt O95785+Q96SW2)
Construct: HUDEP-2 cells engineered to express a HiBiT tag in either the WIZ (Widely interspaced zinc finger) or ZBTB7A
Sequence (O95785 whole entry): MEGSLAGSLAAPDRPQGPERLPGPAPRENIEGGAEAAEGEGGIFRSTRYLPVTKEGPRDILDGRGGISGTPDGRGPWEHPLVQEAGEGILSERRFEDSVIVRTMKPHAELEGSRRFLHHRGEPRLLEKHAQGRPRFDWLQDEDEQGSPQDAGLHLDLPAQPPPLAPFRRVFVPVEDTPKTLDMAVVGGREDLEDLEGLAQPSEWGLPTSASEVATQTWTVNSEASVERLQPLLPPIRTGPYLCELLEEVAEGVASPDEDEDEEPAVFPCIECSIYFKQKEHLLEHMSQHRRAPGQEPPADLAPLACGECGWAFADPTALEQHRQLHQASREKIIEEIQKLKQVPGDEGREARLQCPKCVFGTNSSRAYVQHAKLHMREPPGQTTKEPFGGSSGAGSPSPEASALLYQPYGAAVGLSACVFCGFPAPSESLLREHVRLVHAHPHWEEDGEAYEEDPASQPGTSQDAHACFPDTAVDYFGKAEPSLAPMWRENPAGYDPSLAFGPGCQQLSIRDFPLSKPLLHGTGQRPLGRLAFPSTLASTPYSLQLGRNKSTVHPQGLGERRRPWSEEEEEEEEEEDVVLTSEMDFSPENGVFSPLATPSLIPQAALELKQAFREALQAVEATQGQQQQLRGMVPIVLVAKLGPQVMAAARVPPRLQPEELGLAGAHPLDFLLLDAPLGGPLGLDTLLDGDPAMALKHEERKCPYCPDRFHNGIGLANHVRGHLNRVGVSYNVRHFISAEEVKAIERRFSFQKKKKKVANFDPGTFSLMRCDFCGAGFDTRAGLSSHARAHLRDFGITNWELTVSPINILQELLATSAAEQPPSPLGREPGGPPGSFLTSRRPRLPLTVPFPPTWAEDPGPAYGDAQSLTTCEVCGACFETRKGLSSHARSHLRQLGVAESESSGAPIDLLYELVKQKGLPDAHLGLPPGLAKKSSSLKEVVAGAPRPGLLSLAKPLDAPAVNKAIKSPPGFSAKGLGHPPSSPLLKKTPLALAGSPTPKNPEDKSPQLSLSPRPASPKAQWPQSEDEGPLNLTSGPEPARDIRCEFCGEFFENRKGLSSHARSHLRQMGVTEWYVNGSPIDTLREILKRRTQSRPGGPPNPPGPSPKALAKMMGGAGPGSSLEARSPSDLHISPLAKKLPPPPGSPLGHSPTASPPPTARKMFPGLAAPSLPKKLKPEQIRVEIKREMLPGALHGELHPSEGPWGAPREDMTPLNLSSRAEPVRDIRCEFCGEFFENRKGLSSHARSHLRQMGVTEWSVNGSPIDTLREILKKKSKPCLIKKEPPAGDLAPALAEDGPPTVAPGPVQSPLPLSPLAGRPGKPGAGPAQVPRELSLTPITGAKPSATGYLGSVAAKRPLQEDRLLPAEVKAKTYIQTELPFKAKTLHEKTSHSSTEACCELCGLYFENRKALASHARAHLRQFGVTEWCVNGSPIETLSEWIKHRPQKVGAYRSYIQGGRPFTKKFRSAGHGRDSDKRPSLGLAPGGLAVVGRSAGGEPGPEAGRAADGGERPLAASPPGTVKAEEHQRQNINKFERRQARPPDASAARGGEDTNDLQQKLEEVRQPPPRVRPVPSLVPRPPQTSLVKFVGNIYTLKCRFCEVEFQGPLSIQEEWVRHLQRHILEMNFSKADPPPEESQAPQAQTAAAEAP
Sequence (Q96SW2 whole entry): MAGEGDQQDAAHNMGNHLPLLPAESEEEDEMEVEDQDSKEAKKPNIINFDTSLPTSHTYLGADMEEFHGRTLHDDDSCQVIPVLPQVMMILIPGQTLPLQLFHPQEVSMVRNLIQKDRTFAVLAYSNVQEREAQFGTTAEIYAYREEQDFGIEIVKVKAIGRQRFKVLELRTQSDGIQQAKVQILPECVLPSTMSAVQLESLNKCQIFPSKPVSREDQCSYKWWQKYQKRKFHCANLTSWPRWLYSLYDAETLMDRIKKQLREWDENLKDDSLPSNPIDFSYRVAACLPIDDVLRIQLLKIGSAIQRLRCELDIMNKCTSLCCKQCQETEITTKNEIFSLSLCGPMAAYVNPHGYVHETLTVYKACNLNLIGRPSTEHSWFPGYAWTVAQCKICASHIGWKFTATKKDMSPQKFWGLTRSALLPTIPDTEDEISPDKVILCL
Sequence (Q16531 whole entry partner): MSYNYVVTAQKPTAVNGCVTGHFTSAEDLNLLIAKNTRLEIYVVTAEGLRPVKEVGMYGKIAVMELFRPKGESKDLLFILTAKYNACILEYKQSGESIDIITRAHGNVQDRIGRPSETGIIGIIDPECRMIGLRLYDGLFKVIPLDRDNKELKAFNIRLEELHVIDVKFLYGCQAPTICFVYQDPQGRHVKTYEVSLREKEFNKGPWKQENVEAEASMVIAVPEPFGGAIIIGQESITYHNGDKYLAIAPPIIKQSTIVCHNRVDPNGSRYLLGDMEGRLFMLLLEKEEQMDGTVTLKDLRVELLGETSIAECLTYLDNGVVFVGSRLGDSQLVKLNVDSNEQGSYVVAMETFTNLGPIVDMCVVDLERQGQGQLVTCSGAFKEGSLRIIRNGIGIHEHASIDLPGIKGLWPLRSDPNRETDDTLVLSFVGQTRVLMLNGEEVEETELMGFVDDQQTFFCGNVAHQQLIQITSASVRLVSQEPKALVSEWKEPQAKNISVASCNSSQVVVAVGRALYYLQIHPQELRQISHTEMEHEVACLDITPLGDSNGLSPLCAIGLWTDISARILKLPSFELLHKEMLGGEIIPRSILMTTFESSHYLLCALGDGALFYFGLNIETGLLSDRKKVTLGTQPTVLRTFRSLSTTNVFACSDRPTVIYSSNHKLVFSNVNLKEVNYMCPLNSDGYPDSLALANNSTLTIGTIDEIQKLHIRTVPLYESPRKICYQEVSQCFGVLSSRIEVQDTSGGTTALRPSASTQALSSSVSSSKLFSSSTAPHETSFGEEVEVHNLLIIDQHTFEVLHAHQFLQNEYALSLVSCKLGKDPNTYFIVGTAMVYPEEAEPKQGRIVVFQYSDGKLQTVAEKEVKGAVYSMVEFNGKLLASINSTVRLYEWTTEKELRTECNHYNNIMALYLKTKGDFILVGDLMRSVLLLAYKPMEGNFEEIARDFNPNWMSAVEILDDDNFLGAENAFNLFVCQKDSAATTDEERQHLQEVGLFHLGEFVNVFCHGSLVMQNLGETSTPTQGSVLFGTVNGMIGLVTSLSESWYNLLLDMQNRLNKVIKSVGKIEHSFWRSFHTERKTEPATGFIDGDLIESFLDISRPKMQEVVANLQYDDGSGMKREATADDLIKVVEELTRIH
Measurement Protocol: HUDEP-2 WIZ HiBiT degradation assay
Assay type: cell-based
Condition Set: HiBiT-tagged WIZ degradation in HUDEP-2 cells, 24 hours of treatment; read-out: WIZ EC50
Readout Type: DC50
Answer shape: numeric part, then the unit.

Illustrative cases are given below, each with its answer.
# Compound, Readout Type, Observed Value
data = [
    ("CCOc1cc(-c2cc3c(cc2Nc2cccc4c2C(=O)N(C2CCC(=O)NC2=O)C4=O)N(C)C(=O)CO3)cc(C)n1 (centres unmarked) [Compound 16]", "DC50", "32 nM"),
    ("Cc1cc(-c2cc3c(cc2Nc2cccc4c2C(=O)N(C2CCC(=O)NC2=O)C4=O)N(C)S(=O)(=O)CC3)ccn1 (centres unmarked) [Compound 50]", "DC50", "18 nM"),
    ("Cc1cc(-c2cc3c(cc2Nc2cccc4c2C(=O)N(C2CCC(=O)NC2=O)C4=O)N(C)C(=O)CC3(C)C)ccn1 (centres unmarked) [Compound 83]", "DC50", "8 nM"),
]

query: Identify DC50 associated with the compound Cc1cc(-c2c(Nc3cccc4c3C(=O)N(C3CCC(=O)NC3=O)C4=O)cc3c(c2F)OCC(=O)N3C)cc(C(F)F)n1 (centres unmarked) [Compound 77]
result: 112 nM

query: Identify DC50 associated with the compound CCO[C@H]1CC[C@H](c2cc3c(cc2Nc2cccc4c2C(=O)N([C@H]2CCC(=O)NC2=O)C4=O)N(C)C(=O)[C@@H](C)O3)CC1 [Compound 45]
result: 6 nM

query: Identify DC50 associated with the compound COc1cc(-c2cc3c(cc2Nc2cccc4c2C(=O)N([C@H]2CCC(=O)NC2=O)C4=O)N(C)C(=O)[C@@H](C)O3)ccn1 [Compound 33]
result: 21 nM

query: Identify DC50 associated with the compound Cc1cc(-c2cc3c(cc2Nc2cccc4c2C(=O)N([C@H]2CCC(=O)NC2=O)C4=O)N(C)C(=O)O[C@H]3C)ccn1 [Compound 22]
result: 17 nM

query: Identify DC50 associated with the compound Cc1cc(-c2cc3c(cc2Nc2cccc4c2C(=O)N([C@H]2CCC(=O)NC2=O)C4=O)N(C)C(=O)[C@@H](C)O3)cc(C(F)F)n1 [Compound 49]
result: 39 nM

query: Identify DC50 associated with the compound COc1nccc(-c2cc3c(cc2Nc2cccc4c2C(=O)N([C@H]2CCC(=O)NC2=O)C4=O)N(C)C(=O)[C@H](C)O3)c1F [Compound 35]
result: 11 nM

query: Identify DC50 associated with the compound CN1C(=O)COc2cc(-c3ccnc(C(F)F)c3)c(Nc3cccc4c3C(=O)N([C@H]3CCC(=O)NC3=O)C4=O)cc21 [Compound 9]
result: 24 nM

query: Identify DC50 associated with the compound Cc1cc(-c2cc3c(cc2Nc2cccc4c2C(=O)N(C2CCC(=O)NC2=O)C4=O)N(C)C(=O)C(C)(C)C3)ccn1 (centres unmarked) [Compound 85]
result: 26 nM
